experiment: Cytotoxicity against mouse hippocampal HT22 cells at 1 uM after 24 hrs by MTT assay; format: cell-based, Hippocampus; settings: ht-22, 24 h
property-label: Activity
The reply should consist of the numeric value with the unit placed after it.

compound=Oc1ccc(CN(Cc2ccc(C(F)(F)F)cc2)Cc2ccc(O)c3ncccc23)c2cccnc12 reported_value=33.7%

Fill in the blank: the reported Activity of "Oc1ccc(CN(Cc2cccc(C(F)(F)F)c2)Cc2ccc(O)c3ncccc23)c2cccnc12" is ____.
40.7%

Fill in the blank: the reported Activity of "Oc1ccc(CN(Cc2cccs2)Cc2ccc(O)c3ncccc23)c2cccnc12" is ____.
34%

Fill in the blank: the reported Activity of "Cc1ccc(CN(Cc2ccc(O)c3ncccc23)Cc2ccc(O)c3ncccc23)cc1" is ____.
39.4%
